For each record, write down the corresponding pIC50.
# TESTED TARGET: HCN2 (Homo sapiens)
# Sequence (Q9UL51 whole entry): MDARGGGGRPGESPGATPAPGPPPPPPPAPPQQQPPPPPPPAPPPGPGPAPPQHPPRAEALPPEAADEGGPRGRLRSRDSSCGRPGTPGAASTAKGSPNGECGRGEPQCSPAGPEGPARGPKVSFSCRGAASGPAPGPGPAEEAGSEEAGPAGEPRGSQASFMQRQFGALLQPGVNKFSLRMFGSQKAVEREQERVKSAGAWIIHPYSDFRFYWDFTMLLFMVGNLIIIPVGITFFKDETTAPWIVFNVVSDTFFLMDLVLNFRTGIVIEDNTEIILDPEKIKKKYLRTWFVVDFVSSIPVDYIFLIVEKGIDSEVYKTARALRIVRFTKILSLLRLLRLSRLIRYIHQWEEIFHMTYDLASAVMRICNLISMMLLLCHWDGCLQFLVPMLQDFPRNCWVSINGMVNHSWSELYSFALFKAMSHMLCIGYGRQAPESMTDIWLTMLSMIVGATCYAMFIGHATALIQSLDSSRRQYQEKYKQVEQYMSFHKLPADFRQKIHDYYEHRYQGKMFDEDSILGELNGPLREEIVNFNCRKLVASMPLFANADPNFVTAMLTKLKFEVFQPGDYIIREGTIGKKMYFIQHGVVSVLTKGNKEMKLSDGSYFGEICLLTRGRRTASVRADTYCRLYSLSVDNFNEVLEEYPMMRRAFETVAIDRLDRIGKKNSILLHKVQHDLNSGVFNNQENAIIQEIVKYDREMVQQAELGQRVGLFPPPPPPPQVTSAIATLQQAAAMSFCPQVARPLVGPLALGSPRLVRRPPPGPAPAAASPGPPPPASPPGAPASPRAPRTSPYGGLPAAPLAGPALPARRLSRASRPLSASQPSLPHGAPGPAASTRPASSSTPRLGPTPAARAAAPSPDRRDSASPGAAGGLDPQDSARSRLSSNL
# ASSAY NOTES: HCN2 assay using the Sophion Qube (Example 50B)
# Format: cell-based
# CONDITION DETAILS: Sophion Qube protocol (SQ)
Structures can show the parent of a compound that is named as a salt.
The scale used: pIC50 is minus the common logarithm of the concentration in molar units.

# pIC50 of "COc1ccc2c(cnn2-c2cccnc2[C@@H](N)Cc2nc(C#N)ccc2F)c1" = 5.17

# pIC50 of "N#Cc1ccc(F)c(C[C@H](N)c2ncccc2-n2ncc3cc(F)ccc32)n1" = 6.10

# pIC50 of "Cc1ccc(F)c(C[C@H](N)c2ncccc2-n2ncc3cc(Cl)ccc32)n1" = 5.82

# pIC50 of "N[C@@H](Cc1ncccc1F)c1ncccc1-n1ncc2cc(C(F)(F)F)ccc21" = 4.93

# pIC50 of Cc1ccc(C#N)nc1C[C@H](N)c1ncccc1-n1ncc2cc(C(F)(F)F)ccc21 [Example 33, hydrochloride] = 5.31

# pIC50 of Cc1ccc(C#N)nc1C[C@H](N)c1cnccc1-n1ncc2cc(Cl)ccc21 [Example 42, hydrochloride] = 5.31

# pIC50 of N#Cc1nc(C[C@H](N)c2ncccc2-n2ncc3cc(Br)ccc32)ccc1F [Example 46, hydrochloride] = 5.92

# pIC50 of CS(=O)(=O)c1ccc(F)c(C[C@H](N)c2ncccc2-n2ncc3cc(Cl)ccc32)n1 [Example 41, hydrochloride] = 5.41

# pIC50 of N#Cc1ccc(F)c(C[C@H](N)c2ncccc2-n2ncc3cc(Br)ccc32)n1 [Example 43, hydrochloride] = 6.11

# pIC50 of Cc1ccc2c(cnn2-c2cccnc2[C@@H](N)Cc2nc(C#N)ccc2F)c1 [Example 39, hydrochloride] = 6.51
